- Tested on: EKVX
- assay-overview: relative viability (nuclei count vs DMSO), 5 days (fraction); higher = more cells survive
- condition-context: first compound 2.53 µM
measured-attribute: relative viability
Reply briefly: the number, and no unit.

Worked cases, relative viability given:
{"molecule": "Oc1nc(-c2ccc(C(F)(F)F)cc2)nc2c1CSCC2 [XAV939] + C[C@@H](Oc1cc(-c2cnn(C3CCNCC3)c2)cnc1N)c1c(Cl)ccc(F)c1Cl [Crizotinib] (partner 1 µM)", "relative viability": 0.586}
{"molecule": "Oc1nc(-c2ccc(C(F)(F)F)cc2)nc2c1CSCC2 [XAV939] + O=C(c1cc(Cc2n[nH]c(=O)c3ccccc23)ccc1F)N1CCN(C(=O)C2CC2)CC1 [Olaparib] (partner 8 µM)", "relative viability": 0.378}
{"molecule": "C=C1C(=O)O[C@@H](CCCCCCCC)[C@@H]1C(=O)O [C-75] + C[C@]1(O)C[C@@H](c2nc(-c3ccc4ccc(-c5ccccc5)nc4c3)c3c(N)nccn32)C1 [Linsitinib] (partner 1 µM)", "relative viability": 0.96}
{"molecule": "Oc1nc(-c2ccc(C(F)(F)F)cc2)nc2c1CSCC2 [XAV939] + Cc1nc(NC(=O)N2CCC[C@H]2C(N)=O)sc1-c1ccnc(C(C)(C)C(F)(F)F)c1 [Alpelisib] (partner 2 µM)", "relative viability": 0.548}

Here's the next entry for you.
relative viability measured on Oc1nc(-c2ccc(C(F)(F)F)cc2)nc2c1CSCC2 [XAV939] + CC1(C)CCC(c2ccc(Cl)cc2)=C(CN2CCN(c3ccc(C(=O)NS(=O)(=O)c4ccc(N[C@H](CCN5CCOCC5)CSc5ccccc5)c(S(=O)(=O)C(F)(F)F)c4)cc3)CC2)C1 [Navitoclax] (partner 0.5 µM) = 0.557
